Hey, just so you know, these numbers are from ChEMBL document CHEMBL1142047.

Answer each item with its documented clearance.
PROCEDURE SUMMARY: in vivo
CONDITION SUMMARY: dog, plasma, iv, 0.25 mg/kg
Number only, in mL/min/kg; omit the unit.

Record request: clearance value, item `O=C(NCC1CCN(CCCS(=O)(=O)N2CCOCC2)CC1)c1cccc2c1OCCO2`
7

Entry `CCCCN1CCC(CNC(=O)c2c3n(c4ccccc24)CCCO3)CC1` has what clearance?
8

----------
PROCEDURE SUMMARY: Volume of distribution in dog (n=12; dose 0.25 mg/kg iv or 0.5 mg/kg po)
CONDITION SUMMARY: in vivo
OUTCOME MEASURE: Vd
Number first, unit second.

So what does the record say about Vd for `O=C(NCC1CCN(CCCS(=O)(=O)N2CCOCC2)CC1)c1cccc2c1OCCO2` ?
1.6 L/kg

// returns reported Vd for input `CCCCN1CCC(CNC(=O)c2c3n(c4ccccc24)CCCO3)CC1`
5 L/kg

----------
Would you kindly list clearance for each of these compounds?
PROCEDURE SUMMARY: in vivo
CONDITION SUMMARY: dog, plasma, iv, 0.25 mg/kg
# output: bare number, implied unit mL/min/kg

Item `CC(=O)N1CCN(S(=O)(=O)CCCN2CCC(CNC(=O)c3cccc4c3OCCO4)CC2)CC1` has what recorded clearance?
6

clearance for `CC1(C)CCN(S(=O)(=O)CCCN2CCC(CNC(=O)c3cccc4c3OCCO4)CC2)CC1` ?
27

Quick check: clearance of `O=C(NCC1CCN(CCCS(=O)(=O)N2CCN(c3ncccn3)CC2)CC1)c1cccc2c1OCCO2` ?
5

For `CCCC1CCN(S(=O)(=O)CCCN2CCC(CNC(=O)c3cccc4c3OCCO4)CC2)CC1` , what is its reported clearance?
33

Any idea what its clearance is? The compound is `CCCS(=O)(=O)N1CCN(S(=O)(=O)CCCN2CCC(CNC(=O)c3cccc4c3OCCO4)CC2)CC1`
12

Field request: clearance | item: `CC(C)N1CCN(S(=O)(=O)CCCN2CCC(CNC(=O)c3cccc4c3OCCO4)CC2)CC1`
14

----------
EXPERIMENTAL TARGET: 5-hydroxytryptamine receptor 4 (Homo sapiens, UniProt Q13639)
Sequence (Q13639 whole entry): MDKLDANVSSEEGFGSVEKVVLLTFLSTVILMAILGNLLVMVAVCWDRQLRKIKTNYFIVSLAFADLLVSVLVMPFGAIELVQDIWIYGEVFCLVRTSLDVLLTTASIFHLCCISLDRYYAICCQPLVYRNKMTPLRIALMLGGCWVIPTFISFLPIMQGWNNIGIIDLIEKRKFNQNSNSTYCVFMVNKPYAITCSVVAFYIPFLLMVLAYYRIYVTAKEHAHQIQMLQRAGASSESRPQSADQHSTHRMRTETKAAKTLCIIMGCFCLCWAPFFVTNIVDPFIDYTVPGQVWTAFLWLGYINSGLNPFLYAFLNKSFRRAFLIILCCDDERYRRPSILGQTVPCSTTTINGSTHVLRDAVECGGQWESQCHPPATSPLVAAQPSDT
pKi: −log10 of the molar value.
Cut-off 10 on pKi, inclusive. At or above means class 1; below means class 0.

Decide: is the reported value of pKi for `O=C(NCC1CCN(CCCS(=O)(=O)N2CCN(c3ccc(F)cc3)CC2)CC1)c1cccc2c1OCCO2` equal to or greater than 10?
class 1

Please indicate if the recorded pKi for CCC(C)N1CCN(S(=O)(=O)CCCN2CCC(CNC(=O)c3cccc4c3OCCO4)CC2)CC1 (centres undefined) meets or exceeds 10.
class 1

Kindly determine if pKi recorded for `O=C(NCC1CCN(CCCS(=O)(=O)N2CCCCC2)CC1)c1cccc2c1OCCO2` is above or exactly 10.
class 0

Form field: pKi at least 10? Entry: `O=C(NCC1CCN(CCCS(=O)(=O)N2CCN(c3ncccn3)CC2)CC1)c1cccc2c1OCCO2`
class 0

Does the molecule `CC(C)N1CCN(S(=O)(=O)CCCN2CCC(CNC(=O)c3cccc4c3OCCO4)CC2)CC1` have recorded pKi that is 10 or more?
class 1

Check this molecule for pKi at or above 10: CCCCN1CCC(CNC(=O)c2c3n(c4ccccc24)CCCO3)CC1 [PIBOSEROD]
class 0

Does the reported pKi for `O=C(NCC1CCN(CCCS(=O)(=O)N2CCN(C3CCCC3)CC2)CC1)c1cccc2c1OCCO2` fall at or above the 10 mark?
class 1
